Biological target: human ether-à-go-go-related gene (hERG) potassium channel (human, UniProt Q12809);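 also: peak tail current of the secondary pulse compared with the same well before compound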
Sequence (Q12809 whole entry, looked up): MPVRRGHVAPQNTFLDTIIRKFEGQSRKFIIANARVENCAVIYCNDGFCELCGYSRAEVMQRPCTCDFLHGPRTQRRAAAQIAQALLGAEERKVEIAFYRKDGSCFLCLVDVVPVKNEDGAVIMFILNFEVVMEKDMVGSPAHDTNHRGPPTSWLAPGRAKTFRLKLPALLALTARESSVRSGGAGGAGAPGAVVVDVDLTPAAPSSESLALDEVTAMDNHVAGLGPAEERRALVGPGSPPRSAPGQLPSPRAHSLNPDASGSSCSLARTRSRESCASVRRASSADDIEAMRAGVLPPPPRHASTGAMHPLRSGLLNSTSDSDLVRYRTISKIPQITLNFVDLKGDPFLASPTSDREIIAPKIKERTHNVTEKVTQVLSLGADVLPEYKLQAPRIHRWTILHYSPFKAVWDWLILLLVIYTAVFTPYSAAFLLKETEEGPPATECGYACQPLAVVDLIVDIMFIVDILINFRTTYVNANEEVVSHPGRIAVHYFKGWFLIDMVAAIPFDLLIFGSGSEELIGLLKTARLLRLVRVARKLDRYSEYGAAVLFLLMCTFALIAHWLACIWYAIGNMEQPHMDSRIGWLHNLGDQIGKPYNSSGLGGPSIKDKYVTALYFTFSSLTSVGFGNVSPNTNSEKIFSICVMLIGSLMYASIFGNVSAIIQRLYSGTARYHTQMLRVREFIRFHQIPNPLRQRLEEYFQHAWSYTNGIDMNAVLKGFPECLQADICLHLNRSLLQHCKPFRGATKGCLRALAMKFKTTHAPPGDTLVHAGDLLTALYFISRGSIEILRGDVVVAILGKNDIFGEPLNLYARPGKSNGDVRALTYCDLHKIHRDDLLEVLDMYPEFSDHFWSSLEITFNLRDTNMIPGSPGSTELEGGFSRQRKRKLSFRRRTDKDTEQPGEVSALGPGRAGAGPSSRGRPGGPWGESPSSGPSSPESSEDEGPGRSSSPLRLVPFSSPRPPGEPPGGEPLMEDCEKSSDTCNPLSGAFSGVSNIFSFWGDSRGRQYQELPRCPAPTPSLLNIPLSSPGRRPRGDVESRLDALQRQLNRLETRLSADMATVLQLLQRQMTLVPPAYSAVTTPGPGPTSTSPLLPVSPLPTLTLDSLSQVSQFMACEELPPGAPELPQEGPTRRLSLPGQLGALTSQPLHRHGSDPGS
Experiment: primary screen, population patch clamp on CHO cells stably expressing hERG; higher = less effect of the substance
Among all 310,000 compounds or so, about 14,000 (4.5%) showed an effect of 50% or more. The effect is printed as a negative number. What follows is part of a selection rich in strong results, with near analogues and random picks from the rest.
attribute-measured: hERG current change (%, negative = inhibition) at 10uM (%)
Give a bare numeral; the unit % is implied.

Which hERG current change (%, negative = inhibition) at 10uM value is on record for Cc1ccc(NC(=O)c2cccc(S(=O)(=O)N(C)c3ccccc3)c2)cc1S(=O)(=O)N1CCOCC1 ?
9.04

Which hERG current change (%, negative = inhibition) at 10uM value is on record for COc1ccc(NC(C)=O)cc1NS(=O)(=O)c1ccc2c(c1)OCCO2 ?
21.4

Which hERG current change (%, negative = inhibition) at 10uM value is on record for COc1ccc(C2=NS(=O)(=O)N(C)C(C(=O)Nc3ccc(C)cc3)=C2)cc1 ?
-2.89

Kindly review the next compound as well.
Which hERG current change (%, negative = inhibition) at 10uM value is on record for COc1ccc(Cl)cc1C(=O)OCC(=O)NCCNC(=O)COC(=O)c1cc(Cl)ccc1OC ?
-71.6

* * *

Biological target: human ether-à-go-go-related gene (hERG) potassium channel (human);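 also: peak tail current of the secondary pulse compared with the same well before compound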
Experiment: primary screen, population patch clamp on CHO cells stably expressing hERG; higher = less effect of the substance
The whole screen tested about 310,000 compounds, of which about 14,000 (4.5%) showed an effect of 50% or more. Effects have a minus sign here. The list comes from a sample in which strong results are over-represented; it also holds close analogues and randomly drawn compounds.
attribute-measured: hERG current change (%, negative = inhibition) at 10uM (%)
Give a bare numeral; the unit % is implied.

Which hERG current change (%, negative = inhibition) at 10uM value is on record for Cc1ccc(S(=O)(=O)CC(=O)Nc2nc(-c3ccccc3)cs2)cc1 ?
-38

Kindly review the next molecule as well.
Which hERG current change (%, negative = inhibition) at 10uM value is on record for CCn1c(-c2ccc(N(C)C)cc2)nc2ccccc21 ?
-50.3

* * *

Biological target: human ether-à-go-go-related gene (hERG) potassium channel (human);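 also: peak tail current of the secondary pulse compared with the same well before compound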
Test: primary screen, population patch clamp on CHO cells stably expressing hERG; higher = less effect of the substance
Method: Briefly, Chinese hamster ovary (CHO) cells stably expressing the hERG channel were dislodged from tissue culture flasks and dispensed into PPC plates. […] During the recording, background leak currents were estimated by a 100 ms step to -80 mV from an initial holding potential of -70 mV and subtracted from the subsequent current measurement. The campaign was conducted in two phases using slight differences in recording protocol. […]
Among all 310,000 compounds or so, about 14,000 (4.5%) showed an effect of 50% or more. The effect is printed as a negative number. Many of the other results were omitted from the sample, so strong results are more common in it than they were.
Rule: hERG current change (%, negative = inhibition) at 10uM under -50% gives 0.0, otherwise 1.0.

Dear colleague, could you confirm whether CCOc1cccc2sc(N(CCN(CC)CC)C(=O)c3cccc([N+](=O)[O-])c3)nc12.Cl has hERG current change (%, negative = inhibition) at 10uM at or above -50%?
0.0

Dear colleague, could you confirm whether Cc1ccc(-n2ncc3c(SCC(=O)Nc4cc(C)on4)ncnc32)c(C)c1 has hERG current change (%, negative = inhibition) at 10uM at or above -50%?
1.0

Dear colleague, could you confirm whether CCN(CC)CCN(C(=O)c1ccc2c(c1)CCCC2)c1nc2ccc(OC)cc2s1.Cl has hERG current change (%, negative = inhibition) at 10uM at or above -50%?
1.0

Dear colleague, could you confirm whether CCOc1ccc2nc(N(CCN(CC)CC)C(=O)c3ccc([N+](=O)[O-])cc3)sc2c1.Cl has hERG current change (%, negative = inhibition) at 10uM at or above -50%?
0.0

Dear colleague, could you confirm whether CCN(CC)CCN(C(=O)c1ccc(N2C(=O)CCC2=O)cc1)c1nc2cc3c(cc2s1)OCO3.Cl has hERG current change (%, negative = inhibition) at 10uM at or above -50%?
1.0

Dear colleague, could you confirm whether CCOc1cccc2sc(N(CCN(CC)CC)C(=O)c3cccc(N4C(=O)CCC4=O)c3)nc12.Cl has hERG current change (%, negative = inhibition) at 10uM at or above -50%?
0.0

Dear colleague, could you confirm whether CCOc1ccc2nc(N(CCN(CC)CC)C(=O)c3cccc([N+](=O)[O-])c3)sc2c1.Cl has hERG current change (%, negative = inhibition) at 10uM at or above -50%?
0.0

Numbers sourced from paper PMC4336329.
